Molecular target: E. coli CsgA (Escherichia coli, UniProt P28307)
Construct: made in house; host or cells: E. coli NEB 3016 slyD::kan, pET11d
Sequence (P28307 23-151): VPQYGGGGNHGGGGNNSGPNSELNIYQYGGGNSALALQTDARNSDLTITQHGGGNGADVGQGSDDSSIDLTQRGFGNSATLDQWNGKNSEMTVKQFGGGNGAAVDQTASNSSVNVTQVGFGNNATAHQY
Experiment: In vitro ThioflavinT assay of CsgA aggregation
Format: biochemical
Settings: compounds at 20 μM; CsgA at 20 μM; ThT fluorescence at 18 hours; 20 µM
observable: Inhibition of Aggregation CsgA (compound activity range)

# molecule, result value
measured = [
    ("COc1cc(O)ccc1O [methoxy-hydroquinone, 2-methoxybenzene-1,4-diol]", "(++) to (+++)"),
    ("O=C(O)c1cc(O)c(O)c(O)c1 [gallic acid, 3,4,5-trihydroxybenzoic acid]", "(++) to (+++)"),
]

---

Here the recorded inhibition at 20 µM is given for each entry.
Biological target: E. coli CsgA (Escherichia coli)
Construct: made in house; host or cells: E. coli NEB 3016 slyD::kan, pET11d
Assay: In vitro ThioflavinT assay of CsgA aggregation
Format: biochemical
Conditions: read-out: Inhibition of Aggregation CsgA, compounds at 20 μM; CsgA at 20 μM; ThT fluorescence at 18 hours
observable: inhibition at 20 µM (%)

# compound, result value
data = [
    ("Cc1ccc(C(C)C)cc1O [carvacrol, 2-methyl-5-(propan-2-yl)phenol]", -20),
    ("Cc1ccc(C(C)C)c(O)c1 [thymol, 5-methyl-2-(propan-2-yl)phenol]", -4),
    ("CC(Cc1ccc(O)c(O)c1)C(C)Cc1ccc(O)c(O)c1 (stereo not drawn) [NDGA]", 23),
    ("O=c1c(O)c(-c2ccc(O)c(O)c2)oc2cc(O)cc(O)c12 [quercetin]", 33),
    ("O=C(O[C@@H]1Cc2c(O)cc(O)cc2O[C@@H]1c1cc(O)c(O)c(O)c1)c1cc(O)c(O)c(O)c1 [EGCG, epigallocatechin gallate]", 56),
    ("CCc1ccc(O)c(OC)c1 [4-ethyl guaiacol, 4-ethyl-2-methoxyphenol]", -82),
    ("C=CCc1ccc(O)c(OC)c1 [eugenol, 2-methoxy-4-(prop-2-en-1-yl)phenol]", -10),
    ("O=C(/C=C/c1ccc(O)c(O)c1)O[C@H](Cc1ccc(O)c(O)c1)C(=O)O [rosmarinic acid]", 48),
    ("COc1cc(O)ccc1O [methoxy-hydroquinone, 2-methoxybenzene-1,4-diol]", 50),
    ("Oc1ccc(/C=C/c2cc(O)cc(O)c2)cc1 [resveratrol, (E)-5-(4-hydroxystyryl)benzene-1,3-diol]", 62),
    ("O=C(CCc1ccc(O)cc1)c1c(O)cc(O)cc1O [phloretin]", 18),
    ("C/C=C/c1ccc(O)c(OC)c1 [isoeugenol, 2-methoxy-4-(prop-1-en-1-yl)phenol]", -4),
    ("Brc1cccc(-c2cc(-c3ccc4c(c3)OCO4)n[nH]2)c1 [Anle 138b, reference compound]", 9),
    ("O=C(O)c1cc(O)c(O)c(O)c1 [gallic acid, 3,4,5-trihydroxybenzoic acid]", 82),
    ("COc1ccccc1O [guaiacol, 2-methoxyphenol]", -5),
    ("C=CCc1ccc(OC)c(OC)c1 [4-allyl-1,2-dimethoxy-benzene, 4-allyl-1,2-dimethoxybenzene]", -18),
    ("CCCCCCCCCCCCOC(=O)c1cc(O)c(O)c(O)c1 [lauryl gallate, dodecyl 3,4,5-trihydroxybenzoate]", 1),
    ("O=c1c(O)c(-c2ccc(O)cc2O)oc2cc(O)cc(O)c12 [morin]", 69),
]
